- Tested on: HS 578T breast
- assay.overview: NCI tumour cell line growth inhibition, 48 h
As shown below, each of these compounds has a reported TGI value.

>>> measured("O=C1C=C(c2cc(Br)c(O)c(Br)c2)/C(=C/c2cc(Br)c(O)c(Br)c2)O1")
"> 75 µM"
>>> measured("Fc1cccc2nc(-c3ccccc3)cc(OCc3ccccc3)c12")
"> 100 µM"
>>> measured("Nc1ccc2c(c1)[O][Sn]([c]1ccccc1)([c]1ccccc1)[O]C2=O")
"22.2 µM"
>>> measured("N#CC1C(N)=NNC1c1ccc(-c2ccc(-c3nc4ccccc4o3)cc2)o1 (stereo not given)")
"> 100 µM"

Recorded TGI (compound CC/C=C\C[C@H](O)C/C=C1/C(=O)C=C[C@@H]1C/C=C\CCCC(N)=O ): 32.4 µM

###

- Test system: HOP-92 NSCLC
- assay.overview: NCI tumour cell line growth inhibition, 48 h
assay.endpoint: TGI

Some solved entries appear below for comparison.
>>> measured("CO[P@]1(=O)O[C@@H](c2ccccc2)[C@H](O)[C@]1(O)c1ccccc1")
"> 100 µM"
>>> measured("CC[C@@]1(OC(=O)CCC(=O)O)C(=O)OCc2c1cc1n(c2=O)Cc2cc3ccccc3nc2-1")
"6.08 µM"
>>> measured("O=c1c(OC/C(=N/O)c2ccccc2)c(-c2ccccc2)oc2ccccc12")
"> 50 µM"
>>> measured("CC(=O)Oc1ccc2c(c1)CC[C@@H]1C2[C@@H](O[N+](=O)[O-])C[C@@]2(C)C1CC[C@@H]2O (stereo not given in full)")
"> 100 µM"

Please turn your attention to the following entry.
Recorded TGI (compound Cc1cc2ccccc2c[n+]1CC(=O)CC([O-])(C(F)(F)F)C(F)(F)F ): > 100 µM

###

- Tested on: UACC-257 melanoma
- assay.overview: NCI tumour cell line growth inhibition, 48 h
assay.endpoint: TGI (µM)
Could you give me the number in µM? Just the number is fine.

>>> measured("OC1CCC(Oc2cccc3cnc(Nc4ccc5nc[nH]c5c4)nc23)CC1 (centres undefined)")
8.92
>>> measured("C/C(=N/O)c1cccc(Nc2nc3ccccc3c3[nH]c4ccccc4c23)c1")
17.6
>>> measured("CC(NC(=O)c1ccc(OP(=O)(OCC2=CC(=O)c3ccccc3C2=O)N(C)CCCCCl)cc1)c1ccc(OCC2CCCCC2)c(C(N)=O)c1 (centres undefined)")
18.6

Recorded TGI (compound CC/C=C\C[C@H](O)C/C=C1/C(=O)C=C[C@@H]1C/C=C\CCCC(N)=O ): 5.3

###

- Tested on: NCI/ADR-RES ovarian
Respond only with the outcome that fits, drawn from active, inactive

>>> label_value("OCC1OC(N2C=C(c3nc4ccccc4s3)C3C=CC=CC32)C(O)C1O (stereo not given)")
"inactive"

Q: What outcome does the record of this test show for COC1C(O)=C2C(=O)OC(C)(O)/C=C/C=C\C=C/C=C/C(c3ccccc3)NC(=O)/C=C/C=C/C=C/C=C/C2(C)C1O (stereo not given) ?
A: active

Q: What outcome does the record of this test show for Cc1ccc(S(=O)(=O)NCCN2c3nc4ccccc4cc3Sc3cc4ccccc4nc32)cc1 ?
A: inactive

Q: What outcome does the record of this test show for O=c1c(OC/C(=N/O)c2ccccc2)c(-c2ccccc2)oc2ccccc12 ?
A: inactive

Q: What outcome does the record of this test show for Nc1ccc2c(c1)[O][Sn]([c]1ccccc1)([c]1ccccc1)[O]C2=O ?
A: inactive

The reported measurements were obtained from PubChem BioAssay (NCI).
